Values compiled from paper PMC9818519.

biological target: His-HAT1 (Homo sapiens) (UniProt O14929); test: ELONA; conditions: ELONA: PBS + 1 mM MgCl2 (selection buffer), 37 °C, 1 h; 100 ng HAT1/well adsorbed; 0.2% BSA block; aptamers heated 95 °C 10 min then ice 10 min
Sequence (O14929 whole entry): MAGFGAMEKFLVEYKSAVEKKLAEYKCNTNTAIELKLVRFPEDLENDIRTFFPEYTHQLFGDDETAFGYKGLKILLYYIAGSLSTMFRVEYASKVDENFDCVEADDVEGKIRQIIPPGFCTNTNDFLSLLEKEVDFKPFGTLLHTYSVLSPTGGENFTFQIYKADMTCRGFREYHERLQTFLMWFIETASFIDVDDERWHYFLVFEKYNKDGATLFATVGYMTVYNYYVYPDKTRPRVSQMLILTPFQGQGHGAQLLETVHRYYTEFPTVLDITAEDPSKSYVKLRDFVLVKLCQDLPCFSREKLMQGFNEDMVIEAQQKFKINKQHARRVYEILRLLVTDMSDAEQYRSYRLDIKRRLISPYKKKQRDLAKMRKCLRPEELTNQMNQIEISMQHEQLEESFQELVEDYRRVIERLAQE
Reported pKd by item:
The scale used: pKd is minus the common logarithm of the concentration in molar units.

# Macromolecule Sequence, pKd
rows = [
    ("GTTGCTCGTATTTAGGGCGGGGGGGCGGGGGAGGAGGTGGCGGGAATATCCATTGTCTACACCAGTCTTCATCCGC [apHAT610 (610R)]", 7.55),
    ("GCGGATGAAGACTGGTGTCGAGGGGGGGGCGGGCGGGTGGGTTGGCTCTTCATGCCTGTGCCC [apHAT63T]", 7.36),
]

Q: I am curious: what pKd value has been reported for GCGGATGAAGACTGGTGTCGAGGGGGGGGCGGGCGGGTGGGTTGGCTCTTCATGCCTGTGCCCTAAATACGAGCAAC [apHAT63 (63F)] ?
A: 7.42
